Tested on: OVCAR-3 ovarian
Experiment: NCI tumour cell line growth inhibition, 48 h
Here the recorded TGI is given for each entry.
readout: TGI

>>> measuredvalue("C=CCc1cc(-c2cc(CC=C)c(O)c(CN(CC)CC)c2)cc(CN(CC)CC)c1O")
"> 100 µM"
>>> measuredvalue("FC(F)(F)c1ccc(-c2cnc(-n3cc(COCCN4CCCCC4)nn3)nc2NC2CCCCCC2)cc1")
"7.48 µM"
>>> measuredvalue("CCCCC(C)C(OC(=O)CC(CC(=O)O)C(=O)O)C(CC(C)CC(O)CCCCC(O)CC(O)C(C)N)OC(=O)CC(CC(=O)O)C(=O)O (centres undefined)")
"> 100 µM"
>>> measuredvalue("C[n+]1c(-c2ccc(/C=N/Nc3ccnc(N/N=C/c4ccc(-c5cn6ccsc6[n+]5C)cc4)n3)cc2)cn2ccsc21")
"> 100 µM"
>>> measuredvalue("CC(=O)c1ccccc1NCC(=O)Nn1cnc2ccc(S(=O)(=O)Nc3ccccc3C(C)=O)cc2c1=O")
"> 100 µM"
>>> measuredvalue("COc1cc(OC)c2nccc(NCCCN(C)C)c2c1[N+](=O)[O-]")
"> 100 µM"
>>> measuredvalue("COc1cccc(-c2ccc3c(c2)C2CCN(Cc4ccccc4)C3C2)c1 (centres undefined)")
"17 µM"
>>> measuredvalue("COC(OC)C1OCC(n2cc(F)c(=O)[nH]c2=O)C1O (centres undefined)")
"> 100 µM"
>>> measuredvalue("O=C(O)C1CCCCC1c1c2ccc(=O)c(O)c-2oc2c(O)c(O)ccc12 (centres undefined)")
"> 100 µM"
